Assay: Equilibrium saturated solubility in HFA-152a without cosolvent
Assay type: physicochemical
Conditions: organic solvent or mixture, thermodynamic from solid, 5° C., no cosolvent
measured_quantity: solubility at 4 days

C=C(C)[C@@H]1CCC(C)=C[C@H]1c1c(O)cc(CCCCC)cc1O [CBD] ... ≥ 16.4 mg/mL

# ---- query molecule ----
Value lookup for solubility at 4 days; key = CCCCCc1cc(O)c2c(c1)OC(C)(C)[C@@H]1CCC(C)=C[C@@H]21 [Δ-9-THC] ≥ 21.8 mg/mL

---

Settings: HFA-152a with 1-3% ethanol by weight, organic solvent or mixture
measured_quantity: solubility at 14 days

Give the measured solubility at 14 days of "C=C(C)[C@@H]1CCC(C)=C[C@H]1c1c(O)cc(CCCCC)cc1O" . ≥ 15.9 mg/mL

---

Conditions: HFA-152a with 4%, […], organic solvent or mixture
measured_quantity: solubility at 14 days

Fill in the blank: the reported solubility at 14 days of "CCCCCc1cc(O)c2c(c1)OC(C)(C)[C@@H]1CCC(C)=C[C@@H]21" is ____. ≥ 15.9 mg/mL

---

Test: Equilibrium saturated solubility in HFA-134a (comparative)
Assay type: physicochemical
Conditions: organic solvent or mixture, thermodynamic from solid, room temperature
Protocol: In this Example, the equilibrium saturated solubility of CBD or Δ-9-THC individually in HFA-227 and HFA-134a was measured. […]. Each solution was shaken at room temperature for 4 days, after which each solution was filtered to remove undissolved CBD and/or Δ-9-THC, and the concentration of each cannabinoid was measured. The equilibrium saturated solubility of each cannabinoid in each propellant was measured at room temperature.
measured_quantity: solubility at 4 days (µg/mL)
Numbers only, in µg/mL.

I'd like to know its solubility at 4 days. The molecule in question is CCCCCc1cc(O)c2c(c1)OC(C)(C)[C@@H]1CCC(C)=C[C@@H]21 [Δ-9-THC] 2300

---

Please provide measured solubility at 4 days for the entries that follow.
Experiment: Equilibrium saturated solubility in HFA-227 (comparative)
Format: physicochemical
Conditions: organic solvent or mixture, thermodynamic from solid, room temperature
Answers are plain numbers, in µg/mL.

C=C(C)[C@@H]1CCC(C)=C[C@H]1c1c(O)cc(CCCCC)cc1O ... 1800

Name the reported solubility at 4 days value associated with the compound "CCCCCc1cc(O)c2c(c1)OC(C)(C)[C@@H]1CCC(C)=C[C@@H]21" 1500
